Reference source for all entries: PubChem BioAssay (NCI)

Test system: BT-549 breast
Experiment: NCI tumour cell line growth inhibition, 48 h
readout: TGI (µM)
A number alone suffices; assume µM.

Recorded results for 5 compounds are shown here.
Cc1c(C(N)=O)sc2c1c(=O)n(Cc1ccccc1)c1nnc(-c3ccc(Br)cc3)n21    18.9
NC(=S)N=Nc1c(O)c2ccccc2c2ccccc12    4.95
O=c1oc2ccc(-c3ccc(F)cc3F)cc2c(=O)n1-c1ccc(Cl)c(C(F)(F)F)c1    5.17
C[C@@H]1COCCN1c1cc(C2([S@@](C)(=N)=O)CC2)nc(-c2ccnc3[nH]ccc23)n1    23.7
COc1cc(/C=C/c2cc(/C=C/c3ccc(O)c(OC)c3)n(C(=O)Nc3ccc(Cl)cc3)n2)ccc1O    3.51

Let us examine a further case.
Problem: What value of TGI has been recorded for this entry: O=C1c2ccccc2C(=O)c2c(NCC3CO3)ccc(NCC3CO3)c21 (stereo not given)
Result: 14.1

###

// TGI lookup, one value per entry
System: MDA-MB-435
Experiment: NCI tumour cell line growth inhibition, 48 h
A number alone suffices; assume µM.

Recorded results for 3 compounds are shown here.
Cc1c(C(N)=O)sc2c1c(=O)n(Cc1ccccc1)c1nnc(-c3ccc(Br)cc3)n21    20.7
O=C(NCCNc1nccc(-c2c(-c3cccc(O)c3)nc3sccn23)n1)c1ccccc1    12.8
C=CCN(c1cc(OC)c2[nH]c(C(=O)OCC)c(C)c2c1[N+](=O)[O-])S(C)(=O)=O    64.7

Problem: Request body: readout TGI, system MDA-MB-435, query C=C(C)C(=O)O[C@@H]1C/C(C)=C\[C@H](OC(C)=O)C[C@](C)(O)/C=C2/OC(=O)C(COC(C)=O)=C21 . Return the value.
Result: 2.8

Problem: Request body: readout TGI, system MDA-MB-435, query COc1ccc(Nc2nc3cc(N)cc(N)c3nc2-c2ccccc2)cc1OC . Return the value.
Result: 32.1

###

// TGI lookup, one value per entry
Test system: 786-0 renal
Assay: NCI tumour cell line growth inhibition, 48 h
A number alone suffices; assume µM.

CN(C)c1cccc2c1C(=O)C=CC21CCc2ccc(N(C)C)c3c(N(C)C)ccc1c23 (stereo not given)    26.1

Let us examine a further case.
Problem: What value of TGI has been recorded for this entry: C=CCc1cc(C(Cc2ccccc2)NC(C)C)cc(OCc2ccccc2)c1OCc1ccccc1 (stereo not given)
Result: 30.7

###

// GI50 lookup, one value per entry
Tested on: DU-145 prostate
Experiment: NCI tumour cell line growth inhibition, 48 h

Recorded results for 4 compounds are shown here.
Cc1cc(Nc2cc(N3CCN(C)CC3)nc(Sc3ccc(NC(=O)C4CC4)cc3)n2)n[nH]1    > 10 µM
O=C(NCCNc1nccc(-c2c(-c3cccc(O)c3)nc3sccn23)n1)c1ccccc1    19.7 µM
Cc1cc(Cl)ccc1Nc1nc(C(F)(F)F)ccc1C(=O)N/N=C/c1ccccc1Cl    1.62 µM
NC(=S)N=Nc1c(O)c2ccccc2c2ccccc12    1.9 µM

Problem: What value of GI50 has been recorded for this entry: O=c1cc(-c2ccccc2)oc2cc(OC/C(=N/O)c3ccc(F)cc3)ccc12
Result: 18.1 µM

###

Test system: COLO 205 colon
Experiment: NCI tumour cell line growth inhibition, 48 h
// TGI lookup, one value per entry

Cc1ccc2oc3c(c(Br)c(Br)n3C)c(=O)c2c1    > 100 µM
Cc1nc2[nH]ncn2c(=O)c1CCO    > 10 µM
CC[C@H](C)C1=C(O)[N@+]2([O-])Oc3ccc(-c4c(O)c(O)c(-c5ccc(O)cc5)c(OC(C)=O)c4OC(C)=O)cc3O[C@]2([C@@H](C)CC)C(=O)N1O    > 50 µM

Problem: What value of TGI has been recorded for this entry: O=C1CCCCC/C1=C\c1ccccc1
Result: > 100 µM

Problem: What value of TGI has been recorded for this entry: O=c1oc2ccc(-c3ccc(F)cc3F)cc2c(=O)n1-c1ccc(Cl)c(C(F)(F)F)c1
Result: 8.54 µM

Problem: What value of TGI has been recorded for this entry: O=C(Nc1cc(Oc2cc(F)c(NC(=O)C3(C(=O)Nc4ccc(F)cc4)CC3)cc2F)ccn1)C1CC1
Result: 3.27 µM

###

Tested on: SK-OV-3 ovarian
Experiment: NCI tumour cell line growth inhibition, 48 h
Decision: TGI compared against 10 µM; not below it gives t, below it gives f.

Cc1ccc(NCCN(C)C)c2c(=O)c3ccccc3sc12    f

Problem: Is TGI for COc1ccc(/C=C\c2cc(OC)c(OC)c(OC)c2)cc1OCC(=O)Nc1ccc2nc(C)sc2c1 at or above 10 µM?
Result: t

Problem: Is TGI for CCOC(=O)c1ccc2c(c1)[n+](=O)c(C(C)=O)c(C(F)(F)F)n2[O-] at or above 10 µM?
Result: f

###

Test system: SF-295 CNS
Experiment: NCI tumour cell line growth inhibition, 48 h
readout: TGI

CNS(=O)(=O)OCC1OC(n2cnc3c(N)ncnc32)C(O)C1O (centres undefined)    > 100 µM
C=CCOc1ccccc1C1(O)c2ccccc2C2=NCCCN21 (centres undefined)    71.6 µM

Problem: What value of TGI has been recorded for this entry: CCOC(=O)/C(=C/c1ccc(N(CCC#N)CCC#N)cc1C)NC(=O)/C=C/c1ccccc1
Result: > 100 µM

Problem: What value of TGI has been recorded for this entry: COc1ccc(Cn2cc3c(c2-c2ccccc2)CCc2cnoc2-3)cc1N
Result: 3.28 µM

###

Tested on: OVCAR-4 ovarian
Test: NCI tumour cell line growth inhibition, 48 h
readout: TGI

Cc1cc(O)c(/C=N/C(=S)Nc2ccccc2)c(=O)o1    > 100 µM
NCCCCCCNCc1cccc2ccccc12    > 100 µM

Let us examine a further case.
Problem: What value of TGI has been recorded for this entry: N#CCN(CC#N)C1CC=CCC1N(CC#N)CC#N (stereo not drawn)
Result: > 100 µM

###

Test system: CAKI-1 renal
Experiment: NCI tumour cell line growth inhibition, 48 h
// TGI lookup, one value per entry

Recorded results for 6 compounds are shown here.
COc1ccc(C2C3CCCC(C3=O)C(c3ccc(OC)cc3)N2N=O)cc1 (configuration not stated)    > 100 µM
O=C(C[P+](c1ccccc1)(c1ccccc1)c1ccccc1)C[P+](c1ccccc1)(c1ccccc1)c1ccccc1    0.357 µM
NC(=O)c1c(NC=O)ncn1C1OCC(O)C(O)C1O (configuration not stated)    > 100 µM
O=C(NNS(=O)(=O)c1ccccc1)c1cccnc1    > 100 µM
Cc1ccc(C)c(NC(=O)CC2SC(=Nc3ccccc3Cl)NC2=O)c1 (configuration not stated)    > 100 µM
CSc1c(CC(=O)Nc2ccc(Cl)cc2)n(Cc2ccccc2)c2ccccc12    > 100 µM

Problem: What value of TGI has been recorded for this entry: O=C(Nc1cccc2ccccc12)c1ccccc1
Result: > 100 µM

Problem: What value of TGI has been recorded for this entry: O=C(NCCNc1nccc(-c2c(-c3cccc(O)c3)nc3sccn23)n1)c1ccccc1
Result: 29.6 µM

Problem: What value of TGI has been recorded for this entry: COc1ccc(-n2c(=O)n(-c3ccccc3)c(=O)n2-c2ccc(OC)cc2)cc1
Result: 7.59 µM

Problem: What value of TGI has been recorded for this entry: O=C(c1ccccc1)n1c(-c2ccccc2)cs/c1=N\S(=O)(=O)c1ccc(N2N=C3c4ccccc4CC3C2c2cccs2)cc1 (configuration not stated)
Result: > 100 µM

Problem: What value of TGI has been recorded for this entry: NC(=S)N=Nc1c(O)c2ccccc2c2ccccc12
Result: > 100 µM

Problem: What value of TGI has been recorded for this entry: COc1cc(NC=C2C(=O)OC(C)(C)OC2=O)c(OC)c(C)c1OC
Result: > 100 µM

Problem: What value of TGI has been recorded for this entry: CC(=O)OC1CC[C@@]2(C)C(CC[C@]3(C)C2CC=C2[C@@H]4C(C)[C@H](C)CCC4(C)CCC23C)[C@@]1(C)C(=O)O (some centres not stated)
Result: 35.1 µM

Problem: What value of TGI has been recorded for this entry: COc1ccc2nc3n(c2c1)C(=O)c1ccccc1-3
Result: > 100 µM

Problem: What value of TGI has been recorded for this entry: Cc1nc2[nH]ncn2c(=O)c1CCO
Result: > 10 µM

Problem: What value of TGI has been recorded for this entry: Cc1cccc(NC(=O)/C=C/c2ccc([N+](=O)[O-])cc2)c1
Result: > 54.4 µM

Problem: What value of TGI has been recorded for this entry: N#CN1CC[C@H](C(=O)Nc2cc3cc(C(N)=O)ccc3cn2)C1
Result: > 100 µM

###

// TGI lookup, one value per entry
Test system: BT-549 breast
Assay: NCI tumour cell line growth inhibition, 48 h

O=C1CCCCC/C1=C\c1ccccc1    > 100 µM

Problem: Request body: readout TGI, system BT-549 breast, query NC(=O)c1c(NC=O)ncn1C1OCC(O)C(O)C1O (centres undefined) . Return the value.
Result: > 100 µM

Problem: Request body: readout TGI, system BT-549 breast, query CSc1c(CC(=O)Nc2ccc(Cl)cc2)n(Cc2ccccc2)c2ccccc12 . Return the value.
Result: 46.9 µM
